Cited source for all entries: patent US11512089B2

Test System: α5-GABAA receptor (Homo sapiens, UniProt P18507+P31644)
Construct: expressed in transfected cells; host or cells: HEK-293 (monoclonal, stably transfected)
Sequence (P31644 32-462): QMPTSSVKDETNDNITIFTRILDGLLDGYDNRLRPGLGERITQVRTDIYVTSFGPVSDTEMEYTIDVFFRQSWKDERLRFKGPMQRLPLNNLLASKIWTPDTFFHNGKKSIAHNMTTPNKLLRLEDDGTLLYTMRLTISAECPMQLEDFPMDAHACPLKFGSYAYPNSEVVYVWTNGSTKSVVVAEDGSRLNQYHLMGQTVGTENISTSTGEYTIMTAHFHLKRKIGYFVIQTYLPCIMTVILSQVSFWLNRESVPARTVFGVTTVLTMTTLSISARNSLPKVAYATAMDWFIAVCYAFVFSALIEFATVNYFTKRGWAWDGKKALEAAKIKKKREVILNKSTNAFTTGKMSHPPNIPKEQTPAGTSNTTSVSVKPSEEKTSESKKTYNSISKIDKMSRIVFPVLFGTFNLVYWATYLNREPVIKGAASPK
Sequence (P28472 26-473 partner): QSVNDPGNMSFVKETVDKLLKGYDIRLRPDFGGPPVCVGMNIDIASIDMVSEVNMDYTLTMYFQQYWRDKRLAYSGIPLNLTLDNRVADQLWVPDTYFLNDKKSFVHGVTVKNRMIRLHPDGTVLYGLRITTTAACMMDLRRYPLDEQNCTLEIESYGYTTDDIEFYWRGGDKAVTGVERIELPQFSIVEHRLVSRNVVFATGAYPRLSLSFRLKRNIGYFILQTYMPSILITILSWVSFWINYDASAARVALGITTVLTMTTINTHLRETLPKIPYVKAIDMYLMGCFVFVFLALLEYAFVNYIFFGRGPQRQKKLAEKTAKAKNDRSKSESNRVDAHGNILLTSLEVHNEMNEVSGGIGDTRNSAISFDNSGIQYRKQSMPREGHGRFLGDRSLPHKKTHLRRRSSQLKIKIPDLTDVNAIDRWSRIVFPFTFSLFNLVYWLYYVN
Sequence (P18507 40-467 isoform P18507-1 limits assumed): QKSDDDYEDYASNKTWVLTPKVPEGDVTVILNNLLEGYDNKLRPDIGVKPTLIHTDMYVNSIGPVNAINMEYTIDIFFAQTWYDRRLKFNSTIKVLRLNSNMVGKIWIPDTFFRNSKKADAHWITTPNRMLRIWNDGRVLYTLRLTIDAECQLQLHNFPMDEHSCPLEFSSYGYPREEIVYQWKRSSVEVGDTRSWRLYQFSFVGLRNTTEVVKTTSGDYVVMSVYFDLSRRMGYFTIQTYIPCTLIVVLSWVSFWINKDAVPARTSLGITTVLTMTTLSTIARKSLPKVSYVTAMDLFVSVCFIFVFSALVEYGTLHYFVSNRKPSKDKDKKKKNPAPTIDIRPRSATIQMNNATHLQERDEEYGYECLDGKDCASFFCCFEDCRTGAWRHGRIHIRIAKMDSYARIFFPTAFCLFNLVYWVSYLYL
Assay Remarks: Whole cell patch clamp, inverse agonism efficacy on GABA-induced current in HEK-293 cells expressing α5-GABAA receptor
Assay type: cell-based
Recorded Conditions: HEK293; compound 100 nM, GABA 0.05 μM; ratio to reference compound Example 7 in CN106854207A in the same batch
# label = T if Emax at 0.1 µM < 90% else F

Examples from the recorded data:
- Compound: "COCc1cc(-c2nnc3c4ccccc4c(OCc4ccc(C(=O)N5CCOCC5)cn4)nn23)no1"
  Answer Label: "F"
- Compound: "COCc1cc(-c2nnc3c4ccccc4c(OCc4ccc(C(=O)N(C)CC5CC5)cn4)nn23)no1"
  Answer Label: "T"

A record lists COCc1cc(-c2nnc3c4ccccc4c(OCc4ccc(C(=O)N5CCCCC5)cn4)nn23)no1 . Is its Emax at 0.1 µM below 90%?
T

For COCc1cc(-c2nnc3c4ccccc4c(OCc4ccc(C(=O)NC(C)COC)cn4)nn23)no1 (stereo not shown) , is the recorded Emax at 0.1 µM below the cut-off of 90%?
F

Given the entry COCc1cc(-c2nnc3c4ccccc4c(OCc4ccc(C(=O)NC5CC5)cn4)nn23)no1 , would its reported Emax at 0.1 µM be below 90%?
F

Say whether its Emax at 0.1 µM is strictly beneath 90%. Entry: COCc1cc(-c2nnc3c4ccccc4c(OCc4ccc(C(=O)NC5COC5)cn4)nn23)no1
F

---

Assay Remarks: Thermodynamic solubility in 50 mM phosphate buffer pH 7.4
Type: physicochemical
Recorded Conditions: aqueous buffer, thermodynamic from solid, 50 mM phosphate buffer pH 7.4, room temperature
Method: 50 mM phosphate buffer pH=7.4: 0.39 g of NaH2PO4.2H2O, and 1.4025 g of Na2HPO4 were weighted and placed in an erlenmeyer flask, 240 mL of water was added. The solid was dissolved and mixed thoroughly, the pH value was adjusted to 7.4 with 10M NaOH solution, and the resulting solution was transferred to a 250 mL volumetric flask, followed by adding water to the mark. Waters e2695 HPLC high performance liquid chromatography, Mettler XSE105 analytical balance. […]
Decision: solubility thermodynamic at 24 h >= 4 µg/mL yields Met, all other cases yield Not met.

Examples with answers:
- Molecule: "CCNC(=O)c1ccc(COc2nn3c(-c4cc(C)on4)nnc3c3ccccc23)nc1 [drawing 164, reference compound]"
  Answer Label: "Not met"
- Molecule: "COCc1cc(-c2nnc3c4ccccc4c(OCc4ccc(C(=O)NC5CC5)cn4)nn23)no1"
  Answer Label: "Met"
- Molecule: "COCCNC(=O)c1ccc(COc2nn3c(-c4cc(C)on4)nnc3c3ccccc23)nc1 [reference compound]"
  Answer Label: "Not met"
- Molecule: "COCc1cc(-c2nnc3c4ccccc4c(OCc4ccc(C(=O)NCC(F)F)cn4)nn23)no1"
  Answer Label: "Not met"
- Molecule: "COCc1cc(-c2nnc3c4ccccc4c(OCc4ccc(C(=O)N5CCC(F)(F)CC5)cn4)nn23)no1"
  Answer Label: "Met"

Answer whether solubility thermodynamic at 24 h of COCc1cc(-c2nnc3c4ccccc4c(OCc4ccc(C(=O)NC(C)C)cn4)nn23)no1 is greater than or equal to 4 µg/mL.
Met

Hi team, for CCNC(=O)c1ccc(COc2nn3c(-c4cc(COC)on4)nnc3c3ccccc23)nc1 , is the recorded solubility thermodynamic at 24 h at or above 4 µg/mL?
Not met
